# tested-system: T1, P9A-bP
# T1 chain: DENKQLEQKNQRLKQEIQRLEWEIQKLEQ
# assay-method-text: two-hybrid library CCNG1;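 also: natural log of median RNA to DNA barcode read ratio; higher means stronger binding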
Here the recorded interaction score is given for each entry.
// no unit string in output, number only

Example cases with answers are listed next.
[[record]]
binder = "DKNKQLKQEIQRLEQENQRLEWKIQKLKQ [P6A-bP]"
value_measured = -0.616

[[record]]
binder = "DKIKQLKQENQRLEQKIQRLKWENQKLEQ [P8A-bP]"
value_measured = 0

[[record]]
binder = "DEIKQLEQKNQRLKQEIQRLEWKNQKLKQ [P7A-bP]"
value_measured = -0.571

[[record]]
binder = "DENKQLEQEIQRLEQEIQRLEWKNQKLKQ [P11A-bP]"
value_measured = 0.853

[[record]]
binder = "DKIKQLKQKNQRLKQKNQRLKWKIQKLKQ [P2A-bP]"
value_measured = -0.913


Now consider a different binder.
For this binder ( DKIKQLKQKIQRLKQENQRLEWENQKLEQ [P4A-bP] ), measured interaction score is -0.489
